# protein stability index per entry
B1: INTS3 (parent)
chain: FHPIKETVVEEPVDITPYLDQLDE

- Variants of: B1
- assay_summary: protein stability index of a GFP-peptide fusion (GPS, HEK-293T) (PSI 1-6); higher = more stable;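 also: lentivirally expressed fusions sorted by FACS into six bins by GFP to DsRed ratio, PSI derived from sequencing read proportions per bin multiplied by bin number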
- conditions_used: c terminus: a fixed tail appended
Give the figure only, with no unit attached.

Please report protein stability index for the following variant: FHPIKETVVEEPVDITTYLDQLDE [P17T]
2.94

Please report protein stability index for the following variant: FHPIKETKVEEPVDITPYLDQLDE [V8K]
3.49

Please report protein stability index for the following variant: FHPIKETVVEEPVDITPYLDQLDA [E24A]
2.58

Please report protein stability index for the following variant: FHPIDETVVEEPVDITPYLDQLDE [K5D]
4.86

Please report protein stability index for the following variant: FHPIKETVREEPVDITPYLDQLDE [V9R]
3.08

Please report protein stability index for the following variant: FHPIKETVVEEPVDITYYLDQLDE [P17Y]
3.75

Numbers sourced from the supplement of paper PMC10567573.
